Assay: growth inhibitors of H69AR lung tumor, primary screen, human, duplicate replicates (AID 580);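 note: 100% = mean luminescence of untreated wells and 0% = no signal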
Settings: H69AR lung tumor cells viability, ATP luminescence, 72 h; at 10 µM; hits give low values
Active and inactive are the calls of the source.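 Rule for the calls: active = viability at or under a set limit in both replicates, limit being median viability minus 3 SD (cut at about 48% in these data, passing the limit was not always enough); inconclusive = at or under the limit in just one replicate; inactive = at or above the limit in both replicates.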
VALUE TYPE: viability

Below, each entry is followed by its recorded viability result.
COMPOUND	VALUE TYPE	TEST RESULT
O=C1CC(N2CCN(C3CCc4ccccc4C3)CC2)C(=O)N1c1ccccc1 (stereo unspecified)	viability	91.6% (inactive)
CN(Cc1cccs1)CC(O)COCc1ccco1 (stereo unspecified)	viability	90.5% (inactive)
CC(C)Cc1cc(C(=O)Nc2c(F)cc(F)cc2Br)no1	viability	113% (inactive)
O=C(Nc1ccc(N2CCOCC2)c(F)c1)c1ccncc1	viability	96.6% (inactive)
O=C(CSc1nnc(Cn2cnc3ccccc32)o1)c1ccccc1	viability	73.3% (inactive)

Now let's try a different one.
Query: viability; subject: "Cc1cc2ncc(C(=O)Nc3ccccc3)c(C)n2n1" 99.5% (inactive)

----------
Property: inhibition; scope: individual compounds
Assay: growth suppression of yeast trafficking mutant, preliminary HTS, modulators of trafficking downstream of Golgi apparatus project, 1536-format plate, OD 615 nm (AID 637)
Details: yeast transport mutant growth, absorbance 615 nm, 18 h; hits give high values
Respond numerically; units are % and should not be typed.

Below, each entry is followed by its recorded inhibition result.
COMPOUND	inhibition, %
O=C(Nc1ccc(Br)cc1F)c1sccc1-n1cccc1	-8.67
COc1ccc(C)cc1NS(=O)(=O)c1ccc(NS(=O)(=O)c2ccc(NC(C)=O)cc2)cc1	1.29
Nc1nnc(SCC(=O)N2CCc3ccccc32)n1-c1ccccc1	0.32
Cc1ccc(S(=O)(=O)N2CCOCC(=O)NCCOCCNC(=O)COCC2)cc1	-4.26
Cc1cc(C)n(-c2cc(N3CCOCC3)nc(-c3ccccc3)n2)n1	4.17
CC(C)CCNc1cc(=O)n(C)c(=O)n1C	20.3
O=C(Oc1cccc2cccnc12)c1cccc(-n2cnnn2)c1	5.97
CCCCCOC(=O)CSc1nnc(-c2cc(OC)c(OC)c(OC)c2)o1	-6.5
CCOC(=O)CSc1nc2ccccc2n2cnnc12	-2
O=C(NC12CC3CC(CC(C3)C1)C2)c1cncc(O)c1	0.32

Query: inhibition; subject: "O=C(Nc1ccccn1)NC(C(F)(F)F)C(F)(F)F" 1.15

Query: inhibition; subject: "O=C(O)CN1C(=O)CNC1=O" 7.21

Query: inhibition; subject: O=C(NCCCN1CCCC1=O)c1ccc2c(c1)NC(=O)C(N1CCOCC1)S2 (stereo unspecified) 0.82

Query: inhibition; subject: "CCOC(=O)N1CCN(c2cc(=O)n(-c3ccc(OCC)cc3)c(=O)[nH]2)CC1" -1.97

Query: inhibition; subject: CCc1cccc(NC(=O)C2CCCN(S(=O)(=O)c3c(C)[nH]c(=O)[nH]c3=O)C2)c1 (stereo unspecified) -3.83

Query: inhibition; subject: "CN(C)CCCn1c(N)c(C#N)c2nc(C#N)c(C#N)nc21" -1.75

Query: inhibition; subject: "Cc1cc(Cl)cc2c1NC(=O)[C@]21[C@@H]2C(=O)N(Cc3ccccc3)C(=O)[C@@H]2[C@@H]2CCCN21" 4.29

Query: inhibition; subject: "Cc1occc1C(=O)Nc1ccccc1NC(=O)c1ccoc1C" 0.48

Query: inhibition; subject: "O=C(c1cc2cc(Cl)cc(Cl)c2oc1=O)N1CCOCC1" 3.44

Query: inhibition; subject: CCC(Sc1ccc(C(=O)O)cc1)C(=O)O (stereo unspecified) -10

Query: inhibition; subject: "CCOC(=O)CNC(=O)CSc1ncnc2c1cnn2-c1ccccc1" -2.26

Query: inhibition; subject: "CC(=O)c1coc2ccc(OCC(=O)O)cc12" -4.26

Query: inhibition; subject: "CCOC(=O)Cc1nn2c(=O)cc(C)nc2s1" 1.64

Query: inhibition; subject: "CCN(c1ccc(OC)cc1)S(=O)(=O)c1ccc2c(c1)CCN2C(=O)CCC(=O)O" -2.06

Source listed as PubChem BioAssay.
